Tested on: 958667-338-R-J2-PDC tumor spheroids viability
Assay: Anticancer human tumor 958667-338-R-J2-PDC patient-derived colon adenocarcinoma cell line growth inhibition [PI3K]
Settings: curve of first compound; second compound 0.1 µM; spheroids with HUVEC and MSC
Text: Combinatorial screen of targeted agents with the PI3K inhibitors inavolisib, alpelisib, duvelisib, and copanlisib in multi-cell type tumor spheroids A high-throughput screen of multi-cell type tumor spheroids was designed to identify active combinations of targeted small molecules and PI3K pathway inhibitors. […] Compounds. […] If the clinical Cmax for an agent had not been determined, the highest concentration tested was 10 microM. […]
Below: a set of entries, each annotated with reported IC50.
READOUT LABEL: IC50

>  <COMPOUND>
CC1(C)CCC(CN2CCN(c3ccc(C(=O)NS(=O)(=O)c4ccc(NCC5CCOCC5)c([N+](=O)[O-])c4)c(Oc4cnc5[nH]ccc5c4)c3)CC2)=C(c2ccc(Cl)cc2)C1 + Cc1nc(NC(=O)N2CCCC2C(N)=O)sc1-c1ccnc(C(C)(C)C(F)(F)F)c1

>  <READOUT LABEL>
IC50

>  <ASSAY RESULT>
6.73 µM

$$$$
>  <COMPOUND>
CCCS(=O)(=O)Nc1ccc(F)c(C(=O)c2c[nH]c3ncc(-c4ccc(Cl)cc4)cc23)c1F + COc1c(OCCCN2CCOCC2)ccc2c3n(c(=NC(=O)c4cnc(N)nc4)nc12)CCN3

>  <READOUT LABEL>
IC50

>  <ASSAY RESULT>
4.08 µM

$$$$
>  <COMPOUND>
Cn1cnc2c(F)c(Nc3ccc(Br)cc3Cl)c(C(=O)NOCCO)cc21 + Cc1nc(NC(=O)N2CCCC2C(N)=O)sc1-c1ccnc(C(C)(C)C(F)(F)F)c1

>  <READOUT LABEL>
IC50

>  <ASSAY RESULT>
0.328 µM

$$$$
>  <COMPOUND>
CC(C)n1nc(-c2ccc3oc(N)nc3c2)c2c(N)ncnc21 + COc1c(OCCCN2CCOCC2)ccc2c3n(c(=NC(=O)c4cnc(N)nc4)nc12)CCN3

>  <READOUT LABEL>
IC50

>  <ASSAY RESULT>
0.00988 µM

$$$$
>  <COMPOUND>
Cn1nccc1Nc1nccc(-c2ccn(C(CO)c3ccc(Cl)c(F)c3)c(=O)c2)n1 (stereo not given) + CC(Nc1ncnc2nc[nH]c12)c1cc2cccc(Cl)c2c(=O)n1-c1ccccc1

>  <READOUT LABEL>
IC50

>  <ASSAY RESULT>
> 10 µM

$$$$

----------
# viability, T/C values compiled below
test system: 958667-338-R-J2-PDC tumor spheroids viability; experiment: Anticancer human tumor 958667-338-R-J2-PDC cell line growth inhibition [PI3K]; conditions: second compound 0.01 µM; first compound 0.01 µM; stronger effect = lower value; spheroids with HUVEC and MSC;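 note: spheroids exposed to compounds for seven days before readout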
READOUT LABEL: viability, T/C (%)

>  <COMPOUND>
CC(=O)c1c(C)c2cnc(Nc3ccc(N4CCNCC4)cn3)nc2n(C2CCCC2)c1=O + COc1c(OCCCN2CCOCC2)ccc2c3n(c(=NC(=O)c4cnc(N)nc4)nc12)CCN3

>  <ASSAYED SYSTEM>
958667-338-R-J2-PDC tumor spheroids viability

>  <READOUT LABEL>
viability, T/C

>  <UNIT INFO>
%

>  <ASSAY RESULT>
79.1

$$$$
>  <COMPOUND>
Cn1ncnc1[C@H]1c2n[nH]c(=O)c3cc(F)cc(c23)N[C@@H]1c1ccc(F)cc1 + CC(Nc1ccc2c(c1)OCCn1cc(N3C(=O)OCC3C(F)F)nc1-2)C(N)=O

>  <ASSAYED SYSTEM>
958667-338-R-J2-PDC tumor spheroids viability

>  <READOUT LABEL>
viability, T/C

>  <UNIT INFO>
%

>  <ASSAY RESULT>
117

$$$$
>  <COMPOUND>
CC(C)n1nc(-c2ccc3oc(N)nc3c2)c2c(N)ncnc21 + CC(Nc1ccc2c(c1)OCCn1cc(N3C(=O)OCC3C(F)F)nc1-2)C(N)=O

>  <ASSAYED SYSTEM>
958667-338-R-J2-PDC tumor spheroids viability

>  <READOUT LABEL>
viability, T/C

>  <UNIT INFO>
%

>  <ASSAY RESULT>
94.7

$$$$
>  <COMPOUND>
CC(=O)c1c(C)c2cnc(Nc3ccc(N4CCNCC4)cn3)nc2n(C2CCCC2)c1=O + CC(Nc1ccc2c(c1)OCCn1cc(N3C(=O)OCC3C(F)F)nc1-2)C(N)=O

>  <ASSAYED SYSTEM>
958667-338-R-J2-PDC tumor spheroids viability

>  <READOUT LABEL>
viability, T/C

>  <UNIT INFO>
%

>  <ASSAY RESULT>
102

$$$$
>  <COMPOUND>
CC(C)n1nc(-c2ccc3oc(N)nc3c2)c2c(N)ncnc21 + COc1c(OCCCN2CCOCC2)ccc2c3n(c(=NC(=O)c4cnc(N)nc4)nc12)CCN3

>  <ASSAYED SYSTEM>
958667-338-R-J2-PDC tumor spheroids viability

>  <READOUT LABEL>
viability, T/C

>  <UNIT INFO>
%

>  <ASSAY RESULT>
71.6

$$$$
>  <COMPOUND>
CCN1CCN(Cc2ccc(Nc3ncc(F)c(-c4cc(F)c5nc(C)n(C(C)C)c5c4)n3)nc2)CC1 + COc1c(OCCCN2CCOCC2)ccc2c3n(c(=NC(=O)c4cnc(N)nc4)nc12)CCN3

>  <ASSAYED SYSTEM>
958667-338-R-J2-PDC tumor spheroids viability

>  <READOUT LABEL>
viability, T/C

>  <UNIT INFO>
%

>  <ASSAY RESULT>
87.8

$$$$
>  <COMPOUND>
Cn1ncnc1[C@H]1c2n[nH]c(=O)c3cc(F)cc(c23)N[C@@H]1c1ccc(F)cc1 + COc1c(OCCCN2CCOCC2)ccc2c3n(c(=NC(=O)c4cnc(N)nc4)nc12)CCN3

>  <ASSAYED SYSTEM>
958667-338-R-J2-PDC tumor spheroids viability

>  <READOUT LABEL>
viability, T/C

>  <UNIT INFO>
%

>  <ASSAY RESULT>
90.7

$$$$

----------
Tested on: 958667-338-R-J2-PDC tumor spheroids viability
Test: Anticancer human tumor 958667-338-R-J2-PDC cell line growth inhibition [PI3K];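 note: spheroids exposed to compounds for seven days before readout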
Settings: second compound 0.0316 µM; first compound 3.16 µM; stronger effect = lower value; spheroids with HUVEC and MSC
Excerpt: Combinatorial screen of targeted agents with the PI3K inhibitors inavolisib, alpelisib, duvelisib, and copanlisib in multi-cell type tumor spheroids A high-throughput screen of multi-cell type tumor spheroids was designed to identify active combinations of targeted small molecules and PI3K pathway inhibitors. […] Compounds. […] If the clinical Cmax for an agent had not been determined, the highest concentration tested was 10 microM. […]

>  <COMPOUND>
CNC(=O)c1ccc(N2C(=S)N(c3ccc(C#N)c(C(F)(F)F)c3)C(=O)C2(C)C)cc1F + CC(Nc1ccc2c(c1)OCCn1cc(N3C(=O)OCC3C(F)F)nc1-2)C(N)=O

>  <viability, T/C [%]>
104

$$$$
>  <COMPOUND>
CNC(=O)c1ccc(N2C(=S)N(c3ccc(C#N)c(C(F)(F)F)c3)C(=O)C2(C)C)cc1F + Cc1nc(NC(=O)N2CCCC2C(N)=O)sc1-c1ccnc(C(C)(C)C(F)(F)F)c1

>  <viability, T/C [%]>
101

$$$$
>  <COMPOUND>
C#Cc1c(F)ccc2cc(O)cc(-c3ncc4c(N5CC6CCC(C5)N6)nc(OCC56CCCN5CC(F)C6)nc4c3F)c12 (stereo not given) + CC(Nc1ncnc2nc[nH]c12)c1cc2cccc(Cl)c2c(=O)n1-c1ccccc1

>  <viability, T/C [%]>
97.5

$$$$
>  <COMPOUND>
C=CC(=O)N1CCN(c2nc(=O)n(-c3c(C)ccnc3C(C)C)c3nc(-c4c(O)cccc4F)c(F)cc23)C(C)C1 (stereo not given) + CC(Nc1ncnc2nc[nH]c12)c1cc2cccc(Cl)c2c(=O)n1-c1ccccc1

>  <viability, T/C [%]>
130

$$$$
>  <COMPOUND>
CCCS(=O)(=O)Nc1ccc(F)c(C(=O)c2c[nH]c3ncc(-c4ccc(Cl)cc4)cc23)c1F + CC(Nc1ncnc2nc[nH]c12)c1cc2cccc(Cl)c2c(=O)n1-c1ccccc1

>  <viability, T/C [%]>
131

$$$$

----------
Test system: 958667-338-R-J2-PDC tumor spheroids viability
Experiment: Anticancer human tumor 958667-338-R-J2-PDC cell line growth inhibition [PI3K];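 note: spheroids exposed to compounds for seven days before readout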
Conditions: second compound 0.00316 µM; first compound 0.0316 µM; stronger effect = lower value; spheroids with HUVEC and MSC
Source text: Combinatorial screen of targeted agents with the PI3K inhibitors inavolisib, alpelisib, duvelisib, and copanlisib in multi-cell type tumor spheroids A high-throughput screen of multi-cell type tumor spheroids was designed to identify active combinations of targeted small molecules and PI3K pathway inhibitors. […] Compounds. […] If the clinical Cmax for an agent had not been determined, the highest concentration tested was 10 microM. […]
Quick rule for you: viability, T/C under 90% gets true, anything else gets false.

>  <COMPOUND>
CC(C)n1nc(-c2ccc3oc(N)nc3c2)c2c(N)ncnc21 + COc1c(OCCCN2CCOCC2)ccc2c3n(c(=NC(=O)c4cnc(N)nc4)nc12)CCN3

>  <CAT>
true

$$$$
>  <COMPOUND>
CC(=O)c1c(C)c2cnc(Nc3ccc(N4CCNCC4)cn3)nc2n(C2CCCC2)c1=O + CC(Nc1ccc2c(c1)OCCn1cc(N3C(=O)OCC3C(F)F)nc1-2)C(N)=O

>  <CAT>
false

$$$$
>  <COMPOUND>
CCCS(=O)(=O)Nc1ccc(F)c(C(=O)c2c[nH]c3ncc(-c4ccc(Cl)cc4)cc23)c1F + COc1c(OCCCN2CCOCC2)ccc2c3n(c(=NC(=O)c4cnc(N)nc4)nc12)CCN3

>  <CAT>
false

$$$$
>  <COMPOUND>
C=CC(=O)N1CCN(c2nc(=O)n(-c3c(C)ccnc3C(C)C)c3nc(-c4c(O)cccc4F)c(F)cc23)C(C)C1 (stereo not given) + CC(Nc1ccc2c(c1)OCCn1cc(N3C(=O)OCC3C(F)F)nc1-2)C(N)=O

>  <CAT>
true

$$$$
>  <COMPOUND>
CC(=O)c1c(C)c2cnc(Nc3ccc(N4CCNCC4)cn3)nc2n(C2CCCC2)c1=O + COc1c(OCCCN2CCOCC2)ccc2c3n(c(=NC(=O)c4cnc(N)nc4)nc12)CCN3

>  <CAT>
false

$$$$
